These measurements were taken from patent US10781181B2.

Target: Human FXIa (Homo sapiens (Human))
Sequence (P03951 388-625 limits assumed): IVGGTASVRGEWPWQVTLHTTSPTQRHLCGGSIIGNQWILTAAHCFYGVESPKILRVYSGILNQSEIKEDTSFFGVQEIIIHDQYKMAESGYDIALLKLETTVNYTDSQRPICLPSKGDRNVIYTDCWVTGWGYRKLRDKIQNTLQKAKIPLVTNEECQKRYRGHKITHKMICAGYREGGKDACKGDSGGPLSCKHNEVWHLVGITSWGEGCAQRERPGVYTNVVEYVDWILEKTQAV
Sequence (P03951 19-387 partner limits assumed): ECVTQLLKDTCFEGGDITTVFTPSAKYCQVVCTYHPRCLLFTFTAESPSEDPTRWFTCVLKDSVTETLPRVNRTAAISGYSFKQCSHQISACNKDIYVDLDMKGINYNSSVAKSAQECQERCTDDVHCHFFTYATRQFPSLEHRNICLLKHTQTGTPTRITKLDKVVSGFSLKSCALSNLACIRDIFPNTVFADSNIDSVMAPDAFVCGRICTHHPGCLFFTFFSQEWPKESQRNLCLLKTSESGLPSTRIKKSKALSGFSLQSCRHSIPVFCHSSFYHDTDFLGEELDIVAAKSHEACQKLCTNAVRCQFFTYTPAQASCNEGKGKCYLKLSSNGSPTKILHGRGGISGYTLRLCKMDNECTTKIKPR
Experiment: Determination of the % inhibition for FXIa
Format: biochemical
Conditions: 40 μM of the test compound, human FXIa, 25° C.; read-out: % Inhibition @ 40 μM (human FXIa)
Procedure: Determination of the % Inhibition for FXIa Human FXIa (Enzyme Research Laboratories) was incubated at 25° C. with the fluorogenic substrate Z-Gly-Pro-Arg-AFC and 40 μM of the test compound. Residual enzyme activity (initial rate of reaction) was determined by measuring the change in […].
Listed here are compounds together with their documented inhibition at 40 µM.
quantity_measured: inhibition at 40 µM (%)

[[record]]
item_smiles = "Nc1nn(Cc2ccnc(-n3cccn3)c2)cc1C(=O)NCCOc1cccc(Cl)c1"
value_unit = "%"
reported_result = 0

[[record]]
item_smiles = "CN(C)C(=O)N(C)Cc1ccc(Cn2cc(C(=O)NCCOc3cccc(Cl)c3)c(N)n2)cc1"
value_unit = "%"
reported_result = 0

[[record]]
item_smiles = "Nc1nn(Cc2ccc(Cn3ccccc3=O)cc2)cc1C(=O)NCC(=O)Nc1ccccc1Cl"
value_unit = "%"
reported_result = 0

[[record]]
item_smiles = "Nc1nn(Cc2ccc(Cn3ccccc3=O)cc2)cc1C(=O)NCCOc1cc(Cl)cc(Cl)c1"
value_unit = "%"
reported_result = 47

[[record]]
item_smiles = "Nc1c(C(=O)NCCOc2cccc(Cl)c2)cnn1Cc1ccc(Cn2ccccc2=O)cc1"
value_unit = "%"
reported_result = 2

[[record]]
item_smiles = "CC(=O)N(C)Cc1ccc(Cn2cc(C(=O)NCCOc3cccc(Cl)c3)c(N)n2)cc1"
value_unit = "%"
reported_result = 0

[[record]]
item_smiles = "Nc1nn(Cc2ccc3[nH]ncc3c2)cc1C(=O)NCCOc1cccc(Cl)c1"
value_unit = "%"
reported_result = 2

[[record]]
item_smiles = "CC(C)C(=O)N(C)Cc1ccc(Cn2cc(C(=O)NCCOc3cccc(Cl)c3)c(N)n2)cc1"
value_unit = "%"
reported_result = 3

[[record]]
item_smiles = "CN(C)c1nn(Cc2ccc(Cn3ccccc3=O)cc2)cc1C(=O)NCCOc1cccc(Cl)c1"
value_unit = "%"
reported_result = 1

[[record]]
item_smiles = "Nc1nn(Cc2nc(Cc3ccccc3)no2)cc1C(=O)NCCOc1cccc(Cl)c1"
value_unit = "%"
reported_result = 0

[[record]]
item_smiles = "Nc1nn(Cc2ccc(Cn3ccccc3=O)cc2)cc1C(=O)N[C@H]1CCN(c2cc(Cl)ccn2)C1"
value_unit = "%"
reported_result = 29

[[record]]
item_smiles = "COCc1nn(Cc2ccc(Cn3ccccc3=O)cc2)cc1C(=O)NCCOc1cc(F)cc(Cl)c1"
value_unit = "%"
reported_result = 0

[[record]]
item_smiles = "O=C(NCCOc1cccc(Cl)c1)c1cn(Cc2ccc(Cn3ccccc3=O)cc2)nc1C1CC1"
value_unit = "%"
reported_result = 0

